Attribution: PubChem BioAssay (NCI)

Provide the reported growth of each item.
Test system: SK-MEL-5 melanoma
Assay: NCI-60 one-dose screen, 48 h (100 = growth as untreated, 0 = no growth, -100 = all killed)
Conditions: 10 µM
This is part of a sample that, as a whole, favours compounds with a hit. Of some 83,000 tested, about 20% had one in any assay. Active and inactive are the calls of the source. The calls were made as follows: active = growth percent below 10; inactive = the rest.

Data point: CN1CCC2(CC1)NC(=O)c1c(c3ccc(Cl)c(Cl)c3n1C)C2C#N (stereo not given) ; growth = 37.8% (inactive)

For "N#CCCN(NC(=O)OCc1ccccc1)C(=O)OCc1ccccc1" the molecule record lists growth as 108% (inactive)

For this molecule ( "O=C(O)c1ccc(P(=O)(O)O)c([N+](=O)[O-])c1" ), measured growth is 95.3% (inactive)

growth recorded for this molecule, COc1ccc(C2=Nc3c(C)nn(-c4ccccc4)c3NC(c3ccc(Oc4ccnc5cc(Cl)ccc45)c(OC)c3)C2)cc1 (stereo not given) , is 89.4% (inactive)

GET /value?item= CO/N=C(/C(=O)NC1C(=O)N2C(C(=O)O)=C(COC(N)=O)CSC12)c1ccco1 (stereo not given) &field=growth returns 110% (inactive)

Data point: "COc1cc(CNc2ccccc2C(=O)N2CCN(C(=O)c3cc(-c4cc(OC)c(OC)c(OC)c4)n4nc(-c5ccccc5)cc4n3)CC2)cc(OC)c1OC" ; growth = 16.5% (inactive)

So for "Fc1cc(C(F)(F)F)ccc1-c1cncnc1NC1CCCCCC1" , the logged growth turned out to be 92.2% (inactive)

Short answer for "O=C(c1ccc(Cl)cc1Cl)N1CCOCC1" : growth was 96.3% (inactive)

Given item "CN(C)CCN=c1nc2c(c(N)n1-c1ccccc1)c(=S)n(-c1ccccc1)c(=S)n2-c1ccccc1" , the value recorded as its growth is -98.8% (active)

Field growth (entry "Cc1nc2ccccc2c(N)c1-c1cc(C)c2c(C)nc3ccccc3c2n1" ) reads 62.1% (inactive)
